Reference source: patent US8816055

study.target: T1, pKal catalytic domain Mutant 2 (human, UniProt P03952 391-638, limits assumed)
T1 construct: catalytic domain with His tag from Pichia pastoris
T1 sequence (P03952 other isoform, or with tags, fused parts or gaps mutant limits assumed): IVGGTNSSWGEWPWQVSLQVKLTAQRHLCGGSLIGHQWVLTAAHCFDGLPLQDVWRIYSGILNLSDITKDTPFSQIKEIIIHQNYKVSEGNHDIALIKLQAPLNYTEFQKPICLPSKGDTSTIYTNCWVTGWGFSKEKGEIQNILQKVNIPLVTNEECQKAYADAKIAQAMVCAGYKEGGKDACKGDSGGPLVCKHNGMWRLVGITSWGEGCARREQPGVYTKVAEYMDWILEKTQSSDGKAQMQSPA
assay.explanation: Ki,app, enzyme inhibition
pKi: −log10 of the molar value.
Item-by-item account of pKi
experimental.readout: pKi

{"binder": "X115-B07 (antibody, V domains shown, also called 559A-X115-B07; 559A-X0115-B07) VH: EVQLLESGGGLVQPGGSLRLSCAASGFTFSHYLMTWVRQAPGKGLEWVSYISPSGGHTIYADSVKGRFTISRDNSKNTLYLQMNSLRAEDTAVYYCAMVGQGIRGRSRTSYFAQWGQGTLVTVSS VL: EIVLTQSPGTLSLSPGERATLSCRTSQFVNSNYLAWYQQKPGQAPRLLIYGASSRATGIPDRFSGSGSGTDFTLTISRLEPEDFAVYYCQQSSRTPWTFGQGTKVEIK", "readout.number": 7.33}
{"binder": "X101-A01 (antibody, V domains shown, also called 559A-X0101-A01) VH: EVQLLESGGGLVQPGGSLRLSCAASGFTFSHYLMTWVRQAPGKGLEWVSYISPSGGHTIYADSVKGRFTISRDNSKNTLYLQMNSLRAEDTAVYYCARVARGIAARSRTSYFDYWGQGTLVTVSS VL: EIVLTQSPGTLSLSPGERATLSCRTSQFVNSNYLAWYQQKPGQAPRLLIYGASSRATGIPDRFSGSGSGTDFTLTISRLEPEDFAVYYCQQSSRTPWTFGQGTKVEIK", "readout.number": 7.70}
{"binder": "X115-A03 (antibody, V domains shown, also called 559A-X115-A03; 559A-X0115-A03) VH: EVQLLESGGGLVQPGGSLRLSCAASGFTFSHYIMMWVRQAPGKGLEWVSGIYSSGGITVYADSVKGRFTISRDNSKNTLYLQMNSLRAEDTAVYYCAWRRIGVPRRDSFDMWGQGTMVTVSS VL: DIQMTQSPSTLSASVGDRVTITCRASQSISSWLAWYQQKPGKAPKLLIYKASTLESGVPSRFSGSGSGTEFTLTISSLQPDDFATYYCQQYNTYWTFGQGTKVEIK", "readout.number": 8.43}
